Molecular target: T1, EsCas13d, nuclease-dead (Eubacterium siraeum, UniProt B0MS50, R295A;H300A;R849A;H854A)
T1 sequence: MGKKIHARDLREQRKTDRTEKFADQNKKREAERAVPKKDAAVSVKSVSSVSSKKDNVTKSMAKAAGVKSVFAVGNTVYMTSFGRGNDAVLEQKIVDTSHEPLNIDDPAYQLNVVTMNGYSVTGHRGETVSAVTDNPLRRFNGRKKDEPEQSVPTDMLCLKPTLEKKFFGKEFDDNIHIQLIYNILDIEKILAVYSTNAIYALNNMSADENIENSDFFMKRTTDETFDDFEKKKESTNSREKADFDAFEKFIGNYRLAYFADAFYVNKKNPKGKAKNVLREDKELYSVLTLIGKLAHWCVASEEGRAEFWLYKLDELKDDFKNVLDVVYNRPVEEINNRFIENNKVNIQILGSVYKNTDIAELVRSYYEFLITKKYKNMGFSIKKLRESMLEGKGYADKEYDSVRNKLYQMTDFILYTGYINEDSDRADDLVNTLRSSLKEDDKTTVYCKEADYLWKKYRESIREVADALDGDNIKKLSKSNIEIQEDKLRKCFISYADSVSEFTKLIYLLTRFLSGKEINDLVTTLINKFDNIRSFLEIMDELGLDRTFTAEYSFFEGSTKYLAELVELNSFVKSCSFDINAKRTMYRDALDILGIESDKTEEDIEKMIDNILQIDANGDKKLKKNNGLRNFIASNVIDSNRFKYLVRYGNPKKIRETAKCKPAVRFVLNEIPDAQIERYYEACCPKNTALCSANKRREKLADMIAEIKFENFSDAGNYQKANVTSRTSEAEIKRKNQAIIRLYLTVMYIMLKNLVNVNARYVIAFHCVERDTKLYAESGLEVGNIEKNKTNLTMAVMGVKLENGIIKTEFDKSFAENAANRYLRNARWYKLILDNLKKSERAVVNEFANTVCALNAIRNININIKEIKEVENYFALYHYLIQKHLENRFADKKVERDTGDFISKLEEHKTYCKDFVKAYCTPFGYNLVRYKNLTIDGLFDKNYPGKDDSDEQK
Assay: crRNA (strand 1, pre-loaded); Mg2+; 40 mM Tris-HCl pH 7.5, 150 mM NaCl, 6 mM MgCl2, 1 mM DTT, 0.1% Tween-20, 0.2 mg/ml BSA; 25 C; 10 min per concentration, then washed
Settings: tags: His6-TwinStrep-SUMO cleaved; N-terminal SNAP kept (SNAP-Surface 488); label: 3' end held by stalled T7 RNA polymerase
PARAMETER_MEASURED: pKd
One number for each entry, as −log10 of the molar value.

Example entries and their recorded answers appear below.
target 2 MT 5'PFS CGC 3'PFS AAA (mixed) RNA 1: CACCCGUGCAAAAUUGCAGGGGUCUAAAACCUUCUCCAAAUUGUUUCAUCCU RNA 2: GGGAAUGGAUCCACAUCUACGAAUUCCGCAGGAUGAAACAAUUUGGAGAAGAAAAGAUCGGAAGAGCACACGU: 8.24
target 1 MT 5'PFS UCC 3'PFS AUG (mixed) RNA 1: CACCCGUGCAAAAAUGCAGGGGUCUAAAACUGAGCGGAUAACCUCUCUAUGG RNA 2: GGGAAUGGAUCCACAUCUACGAAUUCUCCCCAUAGAGAGGUUAUCCGCUCAAUGAGAUCGGAAGAGCACACGU: 7.41

Next up:
The binder listed as target 1 insU 3' of 22,insA 3' of 4 (mixed) RNA 1: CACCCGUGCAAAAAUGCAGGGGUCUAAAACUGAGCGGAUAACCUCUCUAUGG RNA 2: GGGAAUGGAUCCACAUCUACGAAUUCGUACUCAUAGAGAGGUUAUCCGCAUCACCGAGAUCGGAAGAGCACACGU has a reported pKd of 7.64
